FYI, the data here is from ChEMBL document CHEMBL5291721.

Please provide measured AC50 for the entries that follow.

Give UniProt:P0DMS8 AC50 for the following molecule: NCC[C@H](O)C(=O)N[C@@H]1C[C@H](N)[C@@H](O[C@H]2O[C@H](CN)[C@@H](O)[C@H](O)[C@H]2O)[C@H](O)[C@H]1O[C@H]1O[C@H](CO)[C@@H](O)[C@H](N)[C@H]1O [AMIKACIN] > 10 µM

Give UniProt:P0DMS8 AC50 for the following molecule: C/C(O)=C(\C#N)C(=O)Nc1ccc(C(F)(F)F)cc1 [TERIFLUNOMIDE] > 30 µM

Give UniProt:P0DMS8 AC50 for the following molecule: CC(C)(C)NCC(O)COc1cccc2c1CCC(=O)N2 (configuration not stated) [CARTEOLOL] > 10 µM

Give UniProt:P0DMS8 AC50 for the following molecule: O=C(O)/C=C/c1ccc(Cn2ccnc2)cc1 [OZAGREL] > 30 µM

Give UniProt:P0DMS8 AC50 for the following molecule: C[C@@H](O)[C@H]1C(=O)N2C(C(=O)O)=C(S[C@@H]3CN[C@H](C(=O)N(C)C)C3)[C@H](C)[C@H]12 [MEROPENEM] > 300 µM

Give UniProt:P0DMS8 AC50 for the following molecule: CCC(C)n1ncn(-c2ccc(N3CCN(c4ccc(OCC5COC(Cn6cncn6)(c6ccc(Cl)cc6Cl)O5)cc4)CC3)cc2)c1=O (configuration not stated) [ITRACONAZOLE] > 30 µM

Give UniProt:P0DMS8 AC50 for the following molecule: O=C(O)CCCCCCCC(=O)O [AZELAIC ACID] > 10 µM

Give UniProt:P0DMS8 AC50 for the following molecule: CC(C)Cn1cnc2c(N)nc3ccccc3c21 [IMIQUIMOD] > 30 µM

Give UniProt:P0DMS8 AC50 for the following molecule: Clc1ccc(C(c2ccccc2Cl)C(Cl)Cl)cc1 (configuration not stated) [MITOTANE] > 10 µM

Give UniProt:P0DMS8 AC50 for the following molecule: CCCN(CCC)C(=O)C(CCC(=O)O)NC(=O)c1ccccc1 (configuration not stated) [PROGLUMIDE] > 30 µM

Give UniProt:P0DMS8 AC50 for the following molecule: COc1ccc2c3c1O[C@H]1C(=O)CC[C@@]4(O)[C@@H](C2)N(C)CC[C@]314 [OXYCODONE] > 30 µM

Give UniProt:P0DMS8 AC50 for the following molecule: CCN(CC)C(=O)N[C@H]1C[C@@H]2c3cccc4[nH]cc(c34)C[C@H]2N(C)C1 [TERGURIDE] > 30 µM

Give UniProt:P0DMS8 AC50 for the following molecule: O=P1(NCCCl)OCCCN1CCCl (configuration not stated) [IFOSFAMIDE] > 30 µM

Give UniProt:P0DMS8 AC50 for the following molecule: COC(=O)[C@H]1[C@H]2C[C@@H]3c4[nH]c5cc(OC)ccc5c4CCN3C[C@H]2C[C@@H](OC(=O)/C=C/c2cc(OC)c(OC)c(OC)c2)[C@@H]1OC [RESCINNAMINE] > 30 µM

Give UniProt:P0DMS8 AC50 for the following molecule: CO/N=C(\C(=O)N[C@@H]1C(=O)N2C(C(=O)O)=C(CSc3nnnn3C)CS[C@H]12)c1csc(N)n1 [CEFMENOXIME] > 30 µM

Give UniProt:P0DMS8 AC50 for the following molecule: CCOc1ccc(Cc2cc([C@@H]3O[C@H](CO)[C@@H](O)[C@H](O)[C@H]3O)ccc2Cl)cc1 [DAPAGLIFLOZIN] > 30 µM

Give UniProt:P0DMS8 AC50 for the following molecule: COc1ccccc1OCC(O)CN1CCN(CC(=O)Nc2c(C)cccc2C)CC1 (configuration not stated) [RANOLAZINE] > 30 µM

----------
Please provide measured AC50 for the entries that follow.
Biological target: UniProt O95342
Sequence (O95342 whole entry): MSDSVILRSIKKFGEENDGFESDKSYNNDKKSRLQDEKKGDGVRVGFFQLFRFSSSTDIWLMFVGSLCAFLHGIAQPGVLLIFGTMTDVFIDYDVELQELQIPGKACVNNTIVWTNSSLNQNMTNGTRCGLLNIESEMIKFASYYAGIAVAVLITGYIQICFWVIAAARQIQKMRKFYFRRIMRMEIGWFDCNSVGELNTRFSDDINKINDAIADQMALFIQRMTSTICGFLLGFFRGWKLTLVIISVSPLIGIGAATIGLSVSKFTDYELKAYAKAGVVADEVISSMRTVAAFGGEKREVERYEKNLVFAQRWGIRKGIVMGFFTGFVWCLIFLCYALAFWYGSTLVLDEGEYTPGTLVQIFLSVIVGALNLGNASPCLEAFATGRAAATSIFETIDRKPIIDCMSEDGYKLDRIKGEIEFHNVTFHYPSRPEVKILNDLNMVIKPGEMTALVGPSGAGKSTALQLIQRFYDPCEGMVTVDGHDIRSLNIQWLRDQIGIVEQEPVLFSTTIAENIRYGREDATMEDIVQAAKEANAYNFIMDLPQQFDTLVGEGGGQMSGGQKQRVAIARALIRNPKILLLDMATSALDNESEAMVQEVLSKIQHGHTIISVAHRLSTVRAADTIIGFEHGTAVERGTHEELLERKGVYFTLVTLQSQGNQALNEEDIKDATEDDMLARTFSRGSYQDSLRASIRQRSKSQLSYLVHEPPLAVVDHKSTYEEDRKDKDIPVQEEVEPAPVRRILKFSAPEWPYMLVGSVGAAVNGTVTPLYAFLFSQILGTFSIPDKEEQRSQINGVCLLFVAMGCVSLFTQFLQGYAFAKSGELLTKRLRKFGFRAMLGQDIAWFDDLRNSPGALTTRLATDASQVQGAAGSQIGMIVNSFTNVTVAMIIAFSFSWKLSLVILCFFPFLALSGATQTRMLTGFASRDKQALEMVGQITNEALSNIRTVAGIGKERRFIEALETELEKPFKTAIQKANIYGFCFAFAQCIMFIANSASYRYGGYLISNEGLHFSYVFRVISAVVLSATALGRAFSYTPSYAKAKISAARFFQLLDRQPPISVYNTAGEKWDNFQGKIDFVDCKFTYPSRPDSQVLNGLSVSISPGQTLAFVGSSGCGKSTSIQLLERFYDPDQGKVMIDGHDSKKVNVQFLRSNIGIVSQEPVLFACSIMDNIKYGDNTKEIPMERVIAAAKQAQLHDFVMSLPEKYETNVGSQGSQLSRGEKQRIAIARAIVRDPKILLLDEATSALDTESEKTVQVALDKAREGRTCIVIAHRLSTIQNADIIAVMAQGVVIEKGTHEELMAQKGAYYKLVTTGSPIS
Assay type: functional

Supply AC50 value. Item: CN(C)CCC=C1c2ccccc2C(C)(C)c2ccccc21 130 µM

Supply AC50 value. Item: CCC(C)n1ncn(-c2ccc(N3CCN(c4ccc(OCC5COC(Cn6cncn6)(c6ccc(Cl)cc6Cl)O5)cc4)CC3)cc2)c1=O (stereo not given) 0.66 µM

Supply AC50 value. Item: CCCSc1ccc2nc(NC(=O)OC)[nH]c2c1 > 300 µM

Supply AC50 value. Item: c1ccc([C@H]2CN3CCSC3=N2)cc1 > 300 µM

Supply AC50 value. Item: COc1ccccc1OCC(O)CN1CCN(CC(=O)Nc2c(C)cccc2C)CC1 (stereo not given) > 300 µM

Supply AC50 value. Item: Clc1ccc(C(c2ccccc2Cl)C(Cl)Cl)cc1 (stereo not given) 41 µM

Supply AC50 value. Item: COC(c1ccccc1)(c1ccccc1)[C@H](Oc1nc(C)cc(C)n1)C(=O)O 200 µM

Supply AC50 value. Item: COCCCN1CCC(NC(=O)c2cc(Cl)c(N)c3c2OCC3)CC1 [PRUCALOPRIDE] > 300 µM

Supply AC50 value. Item: CC[C@H]1[C@@H](O)[C@@H]2[C@H](CC[C@]3(C)[C@@H]([C@H](C)CCC(=O)O)CC[C@@H]23)[C@@]2(C)CC[C@@H](O)C[C@@H]12 > 300 µM

Supply AC50 value. Item: CCC1=C(C)CN(C(=O)NCCc2ccc(S(=O)(=O)NC(=O)N[C@H]3CC[C@H](C)CC3)cc2)C1=O [GLIMEPIRIDE] 14 µM

----------
Please provide measured AC50 for the entries that follow.

Give Adenosine receptor A1 (Homo sapiens) AC50 for the following molecule: O=C(O)C[C@H](O)C[C@H](O)/C=C/c1c(C2CC2)nc2ccccc2c1-c1ccc(F)cc1 [PITAVASTATIN] > 10 µM

Give Adenosine receptor A1 (Homo sapiens) AC50 for the following molecule: CCN(CC)C(=O)N[C@H]1C[C@@H]2c3cccc4[nH]cc(c34)C[C@H]2N(C)C1 [TERGURIDE] > 30 µM

Give Adenosine receptor A1 (Homo sapiens) AC50 for the following molecule: CCCCCCOc1ccccc1C(N)=O [EXALAMIDE] > 30 µM

Give Adenosine receptor A1 (Homo sapiens) AC50 for the following molecule: Cc1cc(O)c(C(=O)N[C@@H](C(=O)N[C@@H]2C(=O)N3C(C(=O)O)=C(CSc4nnnn4C)CS[C@H]23)c2ccc(O)cc2)cn1 [CEFPIRAMIDE] > 30 µM

Give Adenosine receptor A1 (Homo sapiens) AC50 for the following molecule: COC(=O)[C@H]1[C@H]2C[C@@H]3c4[nH]c5cc(OC)ccc5c4CCN3C[C@H]2C[C@@H](OC(=O)/C=C/c2cc(OC)c(OC)c(OC)c2)[C@@H]1OC [RESCINNAMINE] > 30 µM

Give Adenosine receptor A1 (Homo sapiens) AC50 for the following molecule: Clc1ccc(C(c2ccccc2Cl)C(Cl)Cl)cc1 (stereo not drawn) [MITOTANE] > 10 µM

Give Adenosine receptor A1 (Homo sapiens) AC50 for the following molecule: Cn1nnc2c(C(N)=O)ncn2c1=O [TEMOZOLOMIDE] > 30 µM

Give Adenosine receptor A1 (Homo sapiens) AC50 for the following molecule: COc1cccc(C2(O)CCCCC2CN(C)C)c1 (stereo not drawn) [TRAMADOL] > 30 µM

----------
Target: Alpha-2C adrenergic receptor (Homo sapiens, UniProt P18825); note: assay procedure not described here
Sequence (P18825 whole entry): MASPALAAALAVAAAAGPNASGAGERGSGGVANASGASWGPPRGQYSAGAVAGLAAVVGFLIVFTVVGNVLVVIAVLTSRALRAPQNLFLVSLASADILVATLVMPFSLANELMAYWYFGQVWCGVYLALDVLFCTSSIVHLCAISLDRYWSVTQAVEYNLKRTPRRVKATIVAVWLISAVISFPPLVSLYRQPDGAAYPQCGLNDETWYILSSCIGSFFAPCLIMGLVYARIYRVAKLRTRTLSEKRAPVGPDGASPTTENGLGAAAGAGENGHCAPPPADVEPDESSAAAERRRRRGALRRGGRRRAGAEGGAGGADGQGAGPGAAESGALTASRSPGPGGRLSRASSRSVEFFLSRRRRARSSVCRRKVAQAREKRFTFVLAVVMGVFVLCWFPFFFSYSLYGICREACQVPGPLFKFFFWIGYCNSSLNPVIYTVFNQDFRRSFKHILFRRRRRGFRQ
Type: functional
measure-name: AC50

Supply AC50 value. Item: CC[C@H]1OC(=O)[C@H](C)[C@@H](O[C@H]2C[C@@](C)(OC)[C@@H](O)[C@H](C)O2)[C@H](C)[C@@H](O[C@@H]2O[C@H](C)C[C@H](N(C)C)[C@H]2O)[C@](C)(O)C[C@@H](C)CN(C)[C@H](C)[C@@H](O)[C@]1(C)O > 10 µM

Supply AC50 value. Item: CCCC1O[C@@H]2C[C@H]3[C@@H]4CCC5=CC(=O)C=C[C@]5(C)[C@H]4[C@@H](O)C[C@]3(C)[C@]2(C(=O)CO)O1 (some centres not stated) [BUDESONIDE] > 10 µM

Supply AC50 value. Item: CC=CC(=O)N(CC)c1ccccc1C > 10 µM

Supply AC50 value. Item: CCOC(=O)OC(C)OC1=C(C(=O)Nc2ccccn2)N(C)S(=O)(=O)c2ccccc21 (configuration not stated) > 30 µM

Supply AC50 value. Item: COc1cc2nc(N(C)CCCNC(=O)C3CCCO3)nc(N)c2cc1OC (configuration not stated) 0.81 µM

Supply AC50 value. Item: O=C(OCC(O)CO)c1ccccc1Nc1ccnc2cc(Cl)ccc12 (configuration not stated) > 30 µM

Supply AC50 value. Item: Cc1cccc(C(C)c2cnc[nH]2)c1C (configuration not stated) 1.3 µM

----------
Please provide measured AC50 for the entries that follow.
Target: UniProt P00533
Sequence (P00533 whole entry): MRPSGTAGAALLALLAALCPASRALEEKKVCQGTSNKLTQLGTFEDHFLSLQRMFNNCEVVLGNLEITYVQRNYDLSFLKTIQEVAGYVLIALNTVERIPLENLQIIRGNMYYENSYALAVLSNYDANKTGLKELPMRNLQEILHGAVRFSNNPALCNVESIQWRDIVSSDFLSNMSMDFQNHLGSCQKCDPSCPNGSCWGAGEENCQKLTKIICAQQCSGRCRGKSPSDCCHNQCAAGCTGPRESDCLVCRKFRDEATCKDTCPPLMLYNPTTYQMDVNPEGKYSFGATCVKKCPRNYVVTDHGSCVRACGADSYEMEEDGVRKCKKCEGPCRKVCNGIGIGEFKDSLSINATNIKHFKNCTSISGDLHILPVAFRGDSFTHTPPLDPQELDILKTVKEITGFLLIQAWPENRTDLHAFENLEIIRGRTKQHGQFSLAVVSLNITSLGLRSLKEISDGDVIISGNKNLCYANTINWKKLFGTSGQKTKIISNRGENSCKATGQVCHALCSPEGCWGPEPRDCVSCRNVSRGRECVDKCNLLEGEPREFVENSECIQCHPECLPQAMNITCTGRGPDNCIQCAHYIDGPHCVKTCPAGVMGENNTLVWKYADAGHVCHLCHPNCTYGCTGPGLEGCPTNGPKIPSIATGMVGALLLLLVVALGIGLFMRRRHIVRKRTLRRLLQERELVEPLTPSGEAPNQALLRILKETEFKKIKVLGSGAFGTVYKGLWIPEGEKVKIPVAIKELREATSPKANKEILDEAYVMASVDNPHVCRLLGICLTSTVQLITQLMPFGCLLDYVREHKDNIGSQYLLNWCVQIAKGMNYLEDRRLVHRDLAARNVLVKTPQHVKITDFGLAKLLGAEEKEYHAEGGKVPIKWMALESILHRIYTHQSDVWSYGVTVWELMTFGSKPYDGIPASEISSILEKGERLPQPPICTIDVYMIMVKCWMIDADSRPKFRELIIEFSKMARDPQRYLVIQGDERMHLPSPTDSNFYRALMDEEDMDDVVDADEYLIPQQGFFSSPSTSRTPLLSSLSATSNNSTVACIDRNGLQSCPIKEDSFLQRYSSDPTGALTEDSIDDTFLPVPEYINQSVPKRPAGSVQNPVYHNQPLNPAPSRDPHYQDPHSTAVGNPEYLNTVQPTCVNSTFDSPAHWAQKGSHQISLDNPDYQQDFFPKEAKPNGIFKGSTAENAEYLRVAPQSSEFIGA
Format: functional

Supply AC50 value. Item: COc1ccc(CC(C)(C)NC[C@H](O)c2cc(O)cc3c2OCC(=O)N3)cc1 > 30 µM

Supply AC50 value. Item: CN(C)CCC=C1c2ccccc2C(C)(C)c2ccccc21 > 30 µM

Supply AC50 value. Item: Cc1c(C(=O)NN2CCCCC2)nn(-c2ccc(Cl)cc2Cl)c1-c1ccc(Cl)cc1 > 30 µM

Supply AC50 value. Item: Cn1nnc2c(C(N)=O)ncn2c1=O [TEMOZOLOMIDE] > 30 µM

Supply AC50 value. Item: CNC1Cc2ccccc2N(C)c2ccccc21 (configuration not stated) > 30 µM

Supply AC50 value. Item: NCC(CC(=O)O)c1ccc(Cl)cc1 (configuration not stated) > 30 µM

Supply AC50 value. Item: C1CCC(C(CC2CCCCN2)C2CCCCC2)CC1 (configuration not stated) > 30 µM
